- tgt: MMP-13 (Homo sapiens, UniProt P45452)
- Construct: made in house
- test.protocol: In-vitro fluorescence assay of MMP-13 activity
- Format: biochemical
- condition.info: recombinant human catalytic domain of MMP-13; read-out: MMP-13 IC50
pIC50 values by entry
Schema: pIC50 number; meaning minus log10 of the concentration expressed in molar units.

Cc1c(C(=O)Nc2ccc(-c3ccc(S(=O)(=O)N[C@H](C(=O)O)C(C)O)cc3)nc2)oc2cccc(NS(C)(=O)=O)c12 (stereo partly shown): 7.55

[in] # return recorded pIC50 for input CC(C)[C@@H](C(=O)O)N(CCN1CCOCC1)S(=O)(=O)c1ccc(-c2ccc(NC(=O)c3cc4ccccc4o3)cc2)cc1
[out] 7.74

[in] Output pIC50 of Cc1c(C(=O)Nc2ccc(-c3ccc(S(=O)(=O)N[C@H](C(=O)O)C(C)C)cc3)cc2)oc2cccc(NC(=O)C(F)(F)F)c12
[out] 7.70

[in] Report pIC50, nothing else, for this compound: COc1c(C(C)=O)ccc2oc(C(=O)Nc3ccc(-c4ccc(S(=O)(=O)N[C@H](C(=O)O)C(C)C)cc4)cc3)c(C)c12
[out] 5.99

[in] Provide one value: measured pIC50 of Cc1c(C(=O)Nc2ccc(-c3ccc(S(=O)(=O)N[C@H](C(=O)O)C(C)C)cc3)cc2)oc2cccc(C(N)=O)c12
[out] 7.85

[in] // Input: Cc1c(C(=O)Nc2ccc(-c3ccc(S(=O)(=O)N[C@H](C(=O)O)C(C)C)cc3)cc2)oc2cccc(-c3cccnc3)c12 . Output its pIC50 only.
[out] 8.40

[in] Recall and state the measured pIC50 for CC(C)[C@H](NS(=O)(=O)c1ccc(-c2ccc(NC(=O)c3nc4cc(C(F)(F)F)ccc4s3)cc2)cc1)C(=O)O .
[out] 7.77

[in] Supply pIC50 value. Item: Cc1c(C(=O)Nc2ccc(-c3ccc(S(=O)(=O)N[C@H](C(=O)O)C(C)C)cc3)cc2)oc2cccc(-c3cccc([N+](=O)[O-])c3)c12
[out] 7.77

[in] Annotate the compound CC(C)[C@H](C(=O)O)N(C)S(=O)(=O)c1ccc(-c2ccc(NC(=O)c3cc4ccccc4o3)cc2)cc1 with its measured pIC50.
[out] 8.24

[in] Consider the compound CC(C)[C@@H](NS(=O)(=O)c1ccc(-c2ccc(OC(=O)c3cc4ccccc4o3)cc2)cc1)C(=O)O and give its recorded pIC50.
[out] 9.30

[in] For Cc1c(C(=O)Nc2ccc(-c3ccc(S(=O)(=O)N[C@H](C(=O)O)C(C)C)cc3)cc2)oc2cccc(CCCO)c12 , write its pIC50.
[out] 8.15

[in] Kindly indicate its recorded pIC50. Item: Cc1c(COc2ccc(-c3ccc(S(=O)(=O)N[C@@H](C(=O)O)C(C)C)cc3)cc2)oc2ccccc12
[out] 8.36

[in] For the compound CC#Cc1cccc2oc(C(=O)Nc3ccc(-c4ccc(S(=O)(=O)N[C@H](C(=O)O)C(C)C)cc4)cc3)c(C)c12 , give its reported pIC50.
[out] 8.02

###

- tgt: MMP-1 (Homo sapiens)
- Sequence (P03956 100-269 limits assumed): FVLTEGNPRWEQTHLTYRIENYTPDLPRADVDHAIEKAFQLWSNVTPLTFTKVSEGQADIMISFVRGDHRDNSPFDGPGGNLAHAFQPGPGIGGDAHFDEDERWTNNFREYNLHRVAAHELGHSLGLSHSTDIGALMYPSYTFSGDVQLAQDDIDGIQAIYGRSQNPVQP
measure: pIC50
Scale explanation: pIC50 corresponds to minus log10 of a concentration expressed in moles per litre.

Solved entries (count: 6):
CC(C)[C@H](NS(=O)(=O)c1ccc(-c2ccc(NC(=O)c3cc4c(-c5ccccc5)nn(C)c4s3)cc2)cc1)C(=O)O [Example 167]: 4.05
CC(C)[C@@H](NS(=O)(=O)c1ccc(-c2ccc(CS(=O)(=O)c3cc4ccccc4o3)cc2)cc1)C(=O)O [Example 164]: 3.30
CC(C)[C@H](NS(=O)(=O)c1ccc(-c2ccc(NC(=O)c3cc4c(ccc5ccccc54)o3)cc2)cc1)C(=O)O [Example 153]: 4.40
CC(C)[C@H](NS(=O)(=O)c1ccc(-c2ccc(NC(=O)c3csc(-c4ccncc4)n3)cc2)cc1)C(=O)O [Example 169]: 4.39
CC(C)[C@H](NS(=O)(=O)c1ccc(-c2ccc(NC(=O)c3cccs3)cc2)cc1)C(=O)O [Example 174]: 5.13
CC(C)[C@@H](NS(=O)(=O)c1ccc(-c2ccc(NC(=O)c3ccco3)cc2)cc1)C(=O)O [Example 172]: 4.73

[in] Name the value of pIC50 reported for Cc1cc(C(=O)Nc2ccc(-c3ccc(S(=O)(=O)N[C@H](C(=O)O)C(C)C)cc3)cc2)nn1-c1ccccc1 [Example 168] when tested on MMP-1 (Homo sapiens).
[out] 4.22

[in] Quote MMP-1 (Homo sapiens) pIC50 for entry CC(C)[C@@H](NS(=O)(=O)c1ccc(-c2ccc(OC(=O)c3cc4ccccc4o3)cc2)cc1)C(=O)O [Example 135] .
[out] 4.70

[in] For MMP-1 (Homo sapiens), give pIC50 of the listed compound: CC(C)[C@H](NS(=O)(=O)c1ccc(-c2ccc(NC(=O)c3nc4ccccc4s3)cc2)cc1)C(=O)O [Example 151]
[out] 4.15

[in] Report measured pIC50 on MMP-1 (Homo sapiens); entry: CN(CC(=O)O)S(=O)(=O)c1ccc(-c2ccc(NC(=O)c3cc4ccccc4o3)cc2)cc1 [Example 79]
[out] 3.30

[in] Under MMP-1 (Homo sapiens), report pIC50 for Cc1c(C(=O)Nc2ccc(-c3ccc(S(=O)(=O)N[C@H](C(=O)O)C(C)C)cc3)cc2)oc2cccc(C#N)c12 [Example 20]
[out] 4.62

[in] Would you please give the reported pIC50 of Cc1c(C(=O)Nc2ccc(-c3ccc(S(=O)(=O)N[C@H](C(=O)O)C(C)C)cc3)cc2)oc2cccc(C(N)=O)c12 [Example 46] with MMP-1 (Homo sapiens)?
[out] 4.69
